quantity: melting point (°C)
// units = °C; emit number, no label

Provide melting point value for the following compound: Cc1cccc(C)c1NC(N)=S
195

Hello, please tell me recorded melting point for this one: C=CC(=O)OCCCCO
-112

# return recorded melting point for input Cc1ccc(-c2ccc(/C=C/C(=O)c3ccc(C)o3)o2)cc1
143

Read off the recorded melting point for Cn1c(=O)c(C2=NNC(=O)C2=NNc2c(Br)cc([N+](=O)[O-])cc2[N+](=O)[O-])c(O)c2ccccc21
192

###

Response key: Met means melting point >= 200 °C; Not met means melting point < 200 °C.

{"compound_string": "Cc1ccc2c3c(c4c(c2c1)CCCC4)CCCC3", "label_value": "Not met"}
{"compound_string": "O=C(NC(=O)c1c(F)cccc1F)Nc1cc(Cl)c(F)c(Cl)c1F", "label_value": "Met"}
{"compound_string": "Cc1cc(C)c([N+](=O)[O-])c(F)c1", "label_value": "Not met"}

Entry COC(=O)CCc1cccc(CCC(=O)OC)c1 : is its melting point no less than 200 °C?
Not met

Confirm if melting point reported for the molecule Nc1ccccc1N1CCNCC1 is 200 °C or above.
Not met

Record O/N=C(\Cc1ccccc1)c1ccc2c3c(cccc13)CC2 ; criterion: melting point no lower than 200 °C. Met?
Not met

Please tell me: is the molecule O=C(O)c1cncc(-c2ccccc2)c1 at or over 200 °C in terms of melting point?
Met

Is reported melting point greater than or equal to 200 °C here: O=C1c2ccccc2C(=O)c2c(NCCO)ccc(NCCO)c21
Met

Does the molecule CC1=NCCNc2c1c(=O)n(-c1ccccc1)c1ccccc21 have recorded melting point that is 200 °C or more?
Met

###

Given measured melting point, output 1 (yes) if it is greater than or equal to 100 °C and 0 (no) if not.

Previously resolved entries follow.
{"molecule": "CCC(C)(C)c1ccc(O)cc1", "label_value": "0 (no)"}
{"molecule": "C[Si](C)(C)Oc1ccccc1", "label_value": "0 (no)"}
{"molecule": "O=[N+]([O-])c1ccc(-c2nnc3n2NC(c2ccccc2)S3)cc1 (centres undefined)", "label_value": "1 (yes)"}

Does the reported melting point for c1ccc2c(c1)CCc1ccccc1CC2 fall at or above the 100 °C mark?
1 (yes)

Given CCCCCCCCOCCCCCCCC , state whether its melting point is at least 100 °C.
0 (no)

Does Cc1ccncc1S(=O)(=O)O have a reported melting point of at least 100 °C?
1 (yes)

API: above_or_equal(metric=melting point, cutoff=100 °C) for item CCNC(=O)C1CC(C)CCC1C(C)C (centres undefined)
0 (no)

API: above_or_equal(metric=melting point, cutoff=100 °C) for item CCc1cccc2c1CCCC2
0 (no)

State whether the measured melting point reaches 100 °C, counting equality as reaching it, for O=C(O)c1ccc(O)c(O)c1O
1 (yes)

Confirm if melting point reported for the molecule Nc1nc(O)nc2[nH]cnc12 is 100 °C or above.
1 (yes)

Determine whether this molecule has melting point no lower than 100 °C: O=C1CCCCCN1c1ccccc1
0 (no)

Textbook exercise: given the entry CCCCCCCCCCCCCCCCOC(C)=O , state whether its melting point is greater than or equal to 100 °C.
0 (no)
